- experiment_notes: Solubility screening of bifenthrin in various solvents
- Format: physicochemical
- Description: Four-milliliter (mL) vials are charged with bifenthrin (10 to 50 wt %), a stir bar, and solvent (90 to 50 wt %). The vials are capped and taped to seal. The vials are secured in a vial rack and shaken on a laboratory shaker for 12 hours at ambient lab temperature (21° C.) and humidity (51%). After 12 hours each sample set is evaluated for solubility of solid: Yes—Homogeneous clear solution No—Solids present in the sample

# compound, Solubility of Bifenthrin, 30 wt %
measured = [
    ("CC(CO)OCC(C)Oc1ccccc1 (centres unmarked)", "NO"),
    ("CC(=O)OCC(C)OC(C)=O (centres unmarked) [DOWANOL ™ PGDA, propylene glycol diacetate]", "YES"),
    ("CCCCCCCCCCCC(=O)OCC [DIAMOSOLV ™ 323, ethyl laurate]", "NO"),
    ("CCCCOCCOC(=O)c1ccccc1 [XU40782.00, ethylene glycol n-butyl ether benzoate]", "YES"),
    ("CCOCCOCCO", "NO"),
    ("CCCCOC(C)COC(C)COC(C)CO (centres unmarked)", "NO"),
    ("CC(O)COc1ccccc1 (centres unmarked)", "NO"),
    ("CCCCOCCOCCOC(C)=O [BUTYL CARBITOL ™ ACETATE, diethylene glycol n-butyl ether acetate]", "YES"),
]
